- Test system: OVCAR-5
- run description: NCI tumour cell line growth inhibition, 48 h
Active and inactive are the calls of the source. Rule as the data show it: active = GI50 up to about 1.1 µM and inactive = higher.
I would appreciate it if you answered using one of these outcomes: active, inactive

COC(=O)/C=C1\C(=O)N(C(C)=O)c2ccccc21	inactive
N=C(N)c1ccc2oc3ccc(C(=N)N)cc3c(=O)c2c1	inactive
CC1=C[C@@H](C)C[C@]2(C)CC[C@H](O2)[C@]23CC[C@](C(=O)O)(C[C@H](O2)[C@@H]2O[C@@](C)(CC2=O)[C@@H](O)[C@H]2CC[C@@]4(CCC[C@@H](O4)[C@H](C)C(=O)O[C@H]4C[C@H]([C@]5(O)OCC[C@H](C)[C@@H]5O)O[C@H]4C=C1)O2)O3	inactive

Ask: Given Cc1cc(O)c2c(c1O)C(=O)C13C(=C(O)C4C(O)C1C1C(O)C3C(O)=C3C(=O)c5c(O)cc(C)c(O)c5C(=O)C341)C2=O (centres undefined) , state the outcome it received in this test.
Reply: active

###

Measured GI50 values are reported for all entries that follow.
- Tested on: HOP-92
- run description: NCI tumour cell line growth inhibition, 48 h
Calls of active or inactive are those of the source. Cut-off read from the data, not from the text of the source: active = GI50 up to about 1.1 µM and inactive = higher.

Solved cases below.
Cc1cc(NC(=O)C2C3C=CC(O3)C2C(=O)O)no1 (stereo not given)	> 100 µM (inactive)
O=c1cc(N2CCOCC2)[nH]c(=O)n1-c1cccc(C(F)(F)F)c1	> 100 µM (inactive)
COc1cccc(/N=C/c2cc3cc(Br)ccc3nc2Cl)c1	30.3 µM (inactive)
O=[N+]([O-])c1cc(-c2nnc(C34CC5CC(CC(C5)C3)C4)o2)cc([N+](=O)[O-])c1	36.1 µM (inactive)

Attention now shifts to the item below.
Observed GI50, HOP-92, "CC=C/C=C/[C@@H]1O[C@](O)([C@H](CC)C(=O)NC/C=C/C=C(\C)[C@@H](OC)[C@@H](C)[C@@H]2O[C@H](/C=C/C=C/C=C(\C)C(=O)c3c(O)cc[nH]c3=O)[C@H](O)[C@@H]2O)[C@H](O)[C@H](O)C1(C)C" : > 100 µM (inactive)

###

- Tested on: UACC-257
- run description: NCI tumour cell line growth inhibition, 48 h
Calls of active or inactive are those of the source. Rule as the data show it: active = GI50 up to about 1.1 µM and inactive = higher.
Outcome field: choose from T for active, F for inactive

CC(C)(C)OC(=O)NCC(CNC(=O)OC(C)(C)C)C(N)=O	F

Ask: How was "CCOC(=O)/C=C/c1c[nH]c(C(=O)OCC)c1" classified in this test?
Reply: F

Ask: Dear all, I need the recorded test outcome for "N=C(N)NS(=O)(=O)c1ccc(Nc2c3ccccc3nc3ccc(C(=O)Nc4ccc(S(N)(=O)=O)cc4)cc23)cc1" , thank you.
Reply: F

Ask: What was the test verdict on "COc1ccc(C(=C2C(=O)N(c3ccccc3)C(=O)C2=C(C)C)c2ccc(OC)cc2)cc1" ?
Reply: F

Ask: Lab log entry: CC(C)=CCOc1cc(NC(=S)c2ccoc2C)ccc1Cl [UC 781] — outcome as called in the assay?
Reply: F

Ask: Which outcome did this test record for the molecule COC1(CC[C@H](C)COC2OC(CO)C(O)C(O)C2O)O[C@H]2C[C@H]3[C@@H]4CC=C5C[C@@H](OC6OC(CO)C(O)C(OC7OC(CO)C(O)C(O)C7O)C6OC6OC(C)C(O)C(O)C6O)CC[C@]5(C)[C@H]4CC[C@]3(C)[C@H]2[C@@H]1C (some centres not stated) ?
Reply: F

Where do these numbers come from? They come from ChEMBL document CHEMBL1201862.
